Taken from ChEMBL document CHEMBL1201862.

- System: COLO 205
- protocol: NCI tumour cell line growth inhibition, 48 h
Calls of active or inactive are those of the source. Rule as the data show it: active = GI50 up to about 1.1 µM and inactive = higher. Residues, ends and D or L forms follow the SMILES beside them. *: point of attachment. Fmoc = O=C(OCC1c2ccccc2-c2ccccc21)*; Boc = CC(C)(C)OC(=O)*
Listed molecules paired with reported GI50

Answered cases to consult:
* COC(=O)c1ccc(NCC2=CC(=O)C=CC2=O)cc1O | 13.2 µM (inactive)
* NC(=O)c1ncn(Cc2ccccc2)c1CNC(N)=S | > 100 µM (inactive)

Specify reported GI50 for the molecule shown: O=Cc1cc2c(cc1-c1cc3c(cc1C=O)OCO3)OCO2
39.5 µM (inactive)

Specify reported GI50 for the molecule shown: CC(=O)Oc1c(C)c2c(c3ccccc13)OC(C)(C)C2
20.3 µM (inactive)

Specify reported GI50 for the molecule shown: Cn1cc2ccccc2c1-c1nc(F)nc(Nc2ccc(N)cc2)n1
> 10 µM (inactive)

Specify reported GI50 for the molecule shown: COC(=O)C(=O)C(C(=O)C(=O)Nc1ccc([N+](=O)[O-])cc1[N+](=O)[O-])c1nc2ccc([N+](=O)[O-])cc2nc1O (centres undefined)
> 100 µM (inactive)

Specify reported GI50 for the molecule shown: C[n+]1c2n(c3nc(N)[nH]c(=O)c31)C1OC(C2)C(O)C1O (centres undefined)
> 100 µM (inactive)

Specify reported GI50 for the molecule shown: CC(C)(C)OC(=O)NCCCCC(NC(=O)C(Cc1c[nH]c2ccccc12)NC(=O)OCC1c2ccccc2-c2ccccc21)C(=O)N1CCCC1C(=O)NCC(N)=O (centres undefined) (Fmoc-WK(Boc)PG-NH2; configuration not given here)
> 100 µM (inactive)

Specify reported GI50 for the molecule shown: Cn1c(=O)c2/c(n(C)c1=O)=N\C=c1\c(=O)n(C)c(=O)n(C)\c1=N\C=2
> 100 µM (inactive)

---

- Tested on: SK-MEL-2
- protocol: NCI tumour cell line growth inhibition, 48 h
Calls of active or inactive are those of the source. Rule as the data show it: active = GI50 up to about 1.1 µM and inactive = higher.
measured.quantity: GI50

- Cc1ccc(NC(=O)c2ccccc2C(=O)O)cc1C: > 100 µM (inactive)

Lab note: record GI50 of COc1ccc2c(=O)oc3c(OC)cc(CCN(C)C)c4c(=O)oc1c2c34 tested on SK-MEL-2.
17.7 µM (inactive)

Lab note: record GI50 of C=C(C)C(=O)O[C@H]1C/C(CO)=C/CCC(=C)C(OC(C)=O)[C@H]2OC(=O)C(=C)[C@H]12 (some centres undefined) tested on SK-MEL-2.
7.18 µM (inactive)

Lab note: record GI50 of CC(C#N)(c1ccccc1)N(CCc1ccccc1)C(=O)Oc1ccccc1 (centres undefined) tested on SK-MEL-2.
> 100 µM (inactive)

---

- System: SR
- protocol: NCI tumour cell line growth inhibition, 48 h
The source made the active and inactive calls. Cut-off read from the data, not from the text of the source: active = GI50 up to about 1.1 µM and inactive = higher.
measured.quantity: GI50

Answered cases to consult:
• C=CCN1C(=O)NC(=O)/C(=C/c2c3ccccc3cc3ccccc23)C1=O = 23.9 µM (inactive)
• C[C@H](CCC(=O)O)[C@H]1CC[C@H]2[C@@H]3[C@@H](O)C[C@@H]4C[C@H](O)CC[C@]4(C)[C@H]3C[C@H](O)[C@]12C = > 100 µM (inactive)
• Cc1cc(C)c2c(=O)n(CC(O)CN3CCN(c4ncccn4)CC3)sc2n1 (stereo not given) = 4.79 µM (inactive)

Lab note: record GI50 of COc1cccc(-c2cc(O)c3cc(Cl)cnc3n2)c1 tested on SR.
0.0292 µM (active)

Lab note: record GI50 of COc1cccc(NC(=O)C(=O)C2C=CCS2(=O)=O)c1 (stereo not given) tested on SR.
> 100 µM (inactive)
